Origin of the recorded values: patent US4920134A

Tested on: murine breast cancer MM46 cells
Experiment: Antitumor activity in C3H mice inoculated with murine breast cancer MM46 cells
Format: in vivo, C3 H mice
Settings: i.p., 0.25 mg/mouse per administration, once a day for 4 days, on the 60th day
Measured quantity: No. of survivors/No. of tested animals

Prompt: Report measured No. of survivors/No. of tested animals; entry is CCCCCCCCCCCCCCCCCCOCC(COCCOCC[N+](C)(C)C)Oc1ncccn1.[Cl-] (stereo not shown) [Example 1]
Completion: 4/5

---

Test system: murine breast cancer MM46 cells
Assay: Antitumor activity in C3H mice inoculated with murine breast cancer MM46 cells
Format: in vivo, C3 H mice
Conditions: i.p., 0.25 mg/mouse per administration, once a day for 4 days, on the 60th day
Measured quantity: No. of survivors/No. of tested animals

Some solved cases for reference:
{"columns": ["Compound", "No. of survivors/No. of tested animals"],
 "data": [
  ["CCCCCCCCCCCCCCCCCCOCC(COCCOCC[N+](C)(C)C)Oc1ccc(Cl)nn1 (stereo not drawn)", "1/5"],
  ["CCCCCCCCCCCCCCCCCCOCC(COCCOCC[n+]1cccc(C(=O)[O-])c1)Oc1ncccn1 (stereo not drawn)", "4/5"]
]}

Prompt: Report measured No. of survivors/No. of tested animals; entry is CCCCCCCCCCCCCCCCCCOCC(COCCOCC[n+]1cccc(O)c1)Oc1ncccn1.[Cl-] (stereo not drawn)
Completion: 1/3
